# Test system: CCRF-CEM leukemia
# assay_method_text: NCI-60 one-dose screen, 48 h (100 = growth as untreated, 0 = no growth, -100 = all killed)
# recorded_conditions: 10 µM unless noted
The panel holds about 83,000 compounds, 20% with a hit somewhere; the sample as a whole holds those more often.
value_type: growth (%)
Report only the number, with the unit % understood.

In the examples that follow, each entry is paired with its recorded growth.
COc1ccc(/C=C/C(c2cc(OC)c(OC)c(OC)c2)n2ccnc2)cc1O (stereo not given): 37.1
CC(=O)O[C@H]1C[C@@H]2C(C)(C)C(=O)CC[C@@]2(C)c2ccc(C(C)C)cc21: 108
Cn1cc(-c2ccc(-c3cn(C)c4ccc(Cl)cc34)[nH]2)c2cc(Cl)ccc21: -12.9
CSC(SC)=C(C#N)c1nc2ccccc2s1: 24.7

Okay, next one:
**Q:** Identify growth associated with the molecule COc1ccc(/C=C(/C(=O)n2cnnn2)c2cc(OC)c(OC)c(OC)c2)cc1
**A:** 5.78
